Cited source: PubChem BioAssay (NCI)

Reported values of growth for individual entries
Tested on: OVCAR-5 ovarian
Assay Summary: NCI-60 one-dose screen, 48 h (100 = growth as untreated, 0 = no growth, -100 = all killed)
Condition Parameters: 10 µM unless noted
Compounds without any hit were thinned out: in the full panel of roughly 83,000, 20% have a hit.
The figure you give is taken to be in %; do not add the unit.

A selection of reference data follows.
> print(dat)
                                   compound  measured.attribute  reading.unit  measurement
1  CCCc1nn2c(CCC(=O)c3nc4ccc([N+](=O)[O-])cc4[nH]3)nnc2s1              growth             %         97.5
2  O=C(CSc1nnc(-c2ccccc2)o1)Nc1ccc(C(=O)/C=C/c2ccccc2)cc1              growth             %          102
3  Cc1ccn2cc(Cc3cc(=O)oc4c3ccc3ccccc34)c(=O)nc2c1              growth             %          102
4                     CCc1cccc(-c2ccccc2)c1              growth             %          104
5  Nc1n[nH]c2cccc(C#Cc3cccc(NC(=O)c4cccc(C(F)(F)F)c4)c3)c12              growth             %         31.3

**Q:** I'd like to know its growth. The compound in question is CC1OC(n2c3ccccc3c3c4c(c5c6ccccc6[nH]c5c32)C(=O)N(CCN[C@@H]2CCC[C@H]2N)C4=O)CC(O)C1O (some centres not stated)
**A:** 49.2

**Q:** I'd like to know its growth. The compound in question is CCC1S/C(=N\N=C(/C)c2cccs2)N(c2ccccc2)C1=O (configuration not stated)
**A:** 111

* * *

Tested on: LOX IMVI melanoma
Assay Summary: NCI-60 one-dose screen, 48 h (100 = growth as untreated, 0 = no growth, -100 = all killed)
Condition Parameters: 10 µM unless noted
Compounds without any hit were thinned out: in the full panel of roughly 83,000, 20% have a hit.
Bucketed by reported growth, buckets being 0 = under 40%, 1 = from 40% up to 80%, 2 = 80% and over

# example entries with known answers
Compound	Class
COc1cc([C@@H]2c3cc4c(cc3C(OC3O[C@@H]5COC(C)O[C@H]5[C@H](O)[C@H]3O)C3COC(=O)[C@@H]32)OCO4)cc(OC)c1O (some centres undefined)	0
C=C1C(=O)O[C@H]2[C@H]1CC/C(COC(=O)c1ccc3ccccc3c1)=C\CC[C@@]1(C)O[C@@H]21	0
CCC(C)Nc1ccc(N)cc1 (centres undefined)	0
COc1ccc(-c2ccc(NC(=O)Nc3cccc(C(F)(F)F)c3)c(C)n2)cc1	1
c1coc(CSc2ncnc3nc[nH]c23)c1	2
COC(=O)c1oc2c(C(=O)/C=C/c3ccc(OC)cc3)c(OCCN3CCOCC3)ccc2c1C	0
O=C(Nc1ccc(-n2cc(-c3ccncc3)c(-c3ccc(O)c(Cl)c3)n2)cc1)c1cc(Cl)cc(Cl)c1	0
O=C(O)c1ccc(-n2cc(/C=N/Nc3ccc(Cl)cc3)c(-c3ccc(F)c(F)c3)n2)cc1	1

**Q:** Which class does COc1ccc2c(c1)/C(=C/c1c(-c3cc(OC)c(OC)c(OC)c3Br)nc3sccn13)C(=O)N2 fall in?
**A:** 1

**Q:** Which class does COC1OCC(OS(=O)(=O)c2ccc(C)cc2)C(OC(=O)c2ccccc2)C1OC(=O)c1ccccc1 (centres undefined) fall in?
**A:** 1

**Q:** Which class does O=C(O)c1cn(C2CC2)c2cc(N3CCN(C(=O)CSc4nc(NS(=O)(=O)c5ccccc5)cc(=O)[nH]4)CC3)c(F)cc2c1=O fall in?
**A:** 2

**Q:** Which class does O=C(Cn1c2ccccc2c2ccncc21)N/N=C/c1c[nH]c2ccccc12 fall in?
**A:** 0

**Q:** Which class does CC(Cc1cccc(C(F)(F)F)c1)NCCOC(=O)c1ccccc1 (centres undefined) fall in?
**A:** 2

**Q:** Which class does COc1ccc(-c2nnc(SCC(=O)Nc3ccc(C(=O)/C=C/c4ccccc4)cc3)o2)cc1OC fall in?
**A:** 2

**Q:** Which class does O=C(N/N=C1\SCC(=O)N1c1ccccc1)c1cc(-c2cc3ccccc3o2)nn1-c1ccccc1 fall in?
**A:** 2

**Q:** Which class does CN1C(=O)C2(SCC(C(=O)NCC(=O)OC(C)(C)C)N2C(=O)C2CCCCC2)c2ccccc21 (centres undefined) fall in?
**A:** 2
